- Test system: SR leukemia
- ASSAY_TEXT: NCI-60 one-dose screen, 48 h
- CONDITIONS: 10 µM unless noted
The panel holds about 83,000 compounds, 20% with a hit somewhere; the sample as a whole holds those more often. Calls of active or inactive are those of the source. The calls were made as follows: active = growth percent below 10; inactive = the rest.
Outcomes: active, inactive

{"COMPOUND": "Cc1ccc(NC(=S)/N=c2/n(-c3ccccc3)nc3n2CCN3C2=NCCN2)cc1", "CLASS_LABEL": "inactive"}
{"COMPOUND": "CC1Cc2c(Cl)ncnc2N(C)c2ccccc21 (stereo not given)", "CLASS_LABEL": "active"}
{"COMPOUND": "COc1cc2c(=O)[nH]c3cc([N+](=O)[O-])ccc3c2cc1[N+](=O)[O-]", "CLASS_LABEL": "inactive"}
{"COMPOUND": "CCc1cccc(Cl)c1", "CLASS_LABEL": "inactive"}
{"COMPOUND": "C=C(C)[C@@H]1CC[C@]2(c3ncc(C)o3)CC[C@]3(C)[C@H](CC[C@@H]4[C@@](C)(CCC#N)[C@H](C(=C)C)CC[C@]43C)[C@@H]12", "CLASS_LABEL": "inactive"}
